Tested system: Farnesyl-protein transferase (FTase) (Bos taurus, UniProt P29702+P49355)
Construct: Farnesyl-protein transferase (FTase) from bovine brain
Experimental details: Inhibition of Ras farnesylation in vitro (FTase inhibition, Ras-CVLS and [3H]FPP)
Condition parameters: Ras-CVLS 3.5 μM, 0.25 μM [3H]FPP, partially purified FTase from bovine brain; assay buffer pH 7.5
Can you tell me pIC50 for the items I'm about to list?
Numbers only, as −log10 of the molar value.

Dear colleague, please send me the reported pIC50 for CCCCCCCCCCCCCCC1=C(C)C(=O)OC1=O [Compound (9)] when you can.
7.34

Here is the next item to consider.
Dear colleague, please send me the reported pIC50 for CCCCCCCCCCCCCC/C(C(=O)O)=C(\C)C(=O)O [Compound (10)] when you can.
7.34
